// values below are MIC; system is K. pneumoniae A
Counter-ions that a name gives are not always drawn.

- compound: "CCn1cc(C(=O)OCC2=C(C(=O)O)N3C(=O)[C@@H](NC(=O)/C(=N\\OC)c4csc(N)n4)[C@H]3SC2)c(=O)c2cc(F)c(N3CCCC3)cc21 [Compound I, sodium salt]"
  MIC / µg/mL: 0.5
- compound: "CCn1cc(C(=O)OCC2=C(C(=O)O)N3C(=O)[C@@H](NC(=O)COc4ccccc4)[C@H]3SC2)c(=O)c2cc3c(cc21)OCO3 [Compound B, monosodium salt]"
  MIC / µg/mL: 1
- compound: "CCn1cc(C(=O)OCC2=C(C(=O)O)N3C(=O)[C@@H](NC(=O)COc4ccccc4)[C@H]3SC2)c(=O)c2ccc(C)nc21 [Compound A, hydrate]"
  MIC / µg/mL: 16
- compound: "CCn1cc(C(=O)OCC2=C(C(=O)O)N3C(=O)[C@@H](NC(=O)COc4ccccc4)[C@H]3SC2)c(=O)c2cc(F)c(N3CCN(C=O)CC3)cc21 [Compound E, sodium salt]"
  MIC / µg/mL: 2
